- TEST_DESCRIPTION: NCI Yeast Anticancer Drug Screen. Data for the cln2 rad14 strain (AID 165);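 further: 0% = growth equal to vehicle treated cultures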
- CONDITION_INFO: S. cerevisiae cln2 rad14 strain, at 50.0 µM, active compounds read high
About 79,000 compounds went through this panel and 15% of them were active in at least one assay; those are over-represented in the sample as a whole. The source made the active and inactive calls. No stated cut-off is given here; in the data, active means growth inhibition above about 70%; inactive means the rest.
Listed here are compounds together with their documented growth inhibition.
ENDPOINT_NAME: growth inhibition

>>> print(df.to_string())
                                    compound    measured_result
 0  CC(=O)OC(C)C1(C)CCC2CCCC(C)(C)C2C1 (configuration not stated)    0.7% (inactive)
 1  O=C(NC(c1ccccc1)c1cccs1)c1cccs1 (configuration not stated)  -38.4% (inactive)
 2                           CC(=O)CCCC(=O)O  -11.9% (inactive)
 3            Nc1n[nH]c(CCCCc2nc(N)n[nH]2)n1  -39.8% (inactive)
 4  CN(C)CCC(O)(c1ccccc1)C(O)(CCN(C)C)c1ccccc1 (configuration not stated)  -8.85% (inactive)
 5        CCS(=O)(=O)Nc1ccc(NS(=O)(=O)CC)cc1   16.5% (inactive)
 6  COc1ccccc1NC(=O)/C(=C\n1c(=S)[nH]c2ccc([N+](=O)[O-])cc21)C(C)=O  -6.25% (inactive)
 7          Cc1cc(SCC(=O)c2ccccc2)nc2ccccc12  -2.25% (inactive)
 8  CO/N=C1\C(C)(C)C(C)(C)C(C)(C)C1(C)SS(=O)(=O)O (configuration not stated)   17.6% (inactive)
 9   Nc1cc(S(=O)(=O)O)cc2cccc(S(=O)(=O)O)c12  -20.6% (inactive)
10  CC(=O)NC(Cc1ccc(O)cc1)C(=O)O (configuration not stated)  -19.4% (inactive)
11  CN1N=C2c3ccccc3OC(c3ccccc3)[C@H]2C1c1ccccc1 (some centres not stated)   -3.8% (inactive)
